System: A549
Assay: NCI tumour cell line growth inhibition, 48 h
Calls of active or inactive are those of the source. No stated cut-off is given here; in the data, active = GI50 up to about 1.1 µM and inactive = higher.
The reply should be one of these categories: active, inactive

Look over these answered cases.
>  <compound>
Nc1ccccc1C#CC(=O)c1cccc(C(F)(F)F)c1

>  <classification>
inactive

$$$$
>  <compound>
Cc1ccc([N+](=O)[O-])cc1NC(=O)C(=O)Cc1occc(=O)c1O

>  <classification>
inactive

$$$$

Q: Recorded call for C[C@]1(CO)CCC[C@@]2(C)C1CC[C@H]1CC3C[C@]12CC[C@]3(C)O (stereo not given in full) ?
A: inactive

Q: Would you kindly repeat that for CC(/C=C/C=C/C=C/C=C/C=C/C(=O)C1=C(O)C(CCC(=O)O)N(C)C1=O)=C\C(C)C(OC1CC(O)C(O)C(C)O1)C(C)C (stereo not given) ?
A: inactive

Q: Field entry: CCOC(=O)C1C(c2ccc(OC)cc2)c2c(nn(-c3ccccc3)c2O)CC1(C)O (stereo not given)
A: inactive

Q: Now this one: Cc1cccc(C)c1NC(=O)C(=O)C(C(=O)c1ccccc1-c1ccccc1)C1OC(=O)c2ccccc21 (stereo not given)
A: inactive

Q: # iterate: Cc1cc(/N=C/c2ccc(C#N)cc2)n(-c2ccccc2)n1
A: inactive

Q: Do the same for O=C1C=C(C2=CC(=O)C(=O)c3ccccc32)c2ccccc2C1=O please
A: inactive
